# target-of-assay: T1, ZIKV (prM80E) with a C-terminal myc-myc-hexahistidine tag (Zika virus, UniProt A0A024B7W1 104-694)
# T1 construct: also called ZIKV (prM80E)-mmH; ZIKV-mmH
# test-method-notes: SPR, mAb captured, 25C
observable: t½ (min)
Reply with just the number (in min).

| binder | t½ (min) |
| --- | --- |
| H4H25566P (antibody, V domains shown) VH: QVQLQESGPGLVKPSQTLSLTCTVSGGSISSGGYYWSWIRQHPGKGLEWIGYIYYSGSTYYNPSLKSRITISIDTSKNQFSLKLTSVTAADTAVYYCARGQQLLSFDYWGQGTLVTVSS VL: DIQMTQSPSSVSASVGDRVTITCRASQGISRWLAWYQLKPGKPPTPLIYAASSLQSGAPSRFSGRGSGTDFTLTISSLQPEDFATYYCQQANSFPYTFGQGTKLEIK | 0.7 |

Moving on to another binder below.
QUERY: Quick one: t½ for H4H25637P (antibody, V domains shown) VH: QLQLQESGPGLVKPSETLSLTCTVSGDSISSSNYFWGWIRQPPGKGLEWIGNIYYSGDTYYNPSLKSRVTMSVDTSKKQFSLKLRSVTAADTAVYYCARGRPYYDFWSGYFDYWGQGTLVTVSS VL: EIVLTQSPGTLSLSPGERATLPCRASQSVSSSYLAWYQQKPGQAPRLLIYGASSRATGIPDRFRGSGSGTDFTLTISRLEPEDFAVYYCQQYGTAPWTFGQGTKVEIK ?
RESULT: 3
